- procedure-text: in vitro
- condition-label: African green monkey, CC50 cell toxicity
Structures can show the parent of a compound that is named as a salt.
property: CC50 at 24 h

{"columns": ["compound", "property", "result"],
 "data": [
  ["CCCS(=O)(=O)Nc1ccc(F)c(C(=O)c2c[nH]c3ncc(-c4ccc(Cl)cc4)cc23)c1F [Vemurafenib (PLX4032), Vemurafenib]", "CC50 at 24 h", "> 50 µM"],
  ["CC(C)N(CCCCOCC(=O)NS(C)(=O)=O)c1cnc(-c2ccccc2)c(-c2ccccc2)n1 [Selexipag]", "CC50 at 24 h", "> 50 µM"],
  ["CCCCOc1cc(C(=O)NCCN(CC)CC)c2ccccc2n1 [Dibucaine hydrochloride]", "CC50 at 24 h", "> 50 µM"],
  ["COc1ccc(CN2CCN(C(c3ccc(F)cc3)c3ccc(F)cc3)CC2)c(OC)c1OC [Lomerizine]", "CC50 at 24 h", "> 100 µM"]
]}

---

- System: Vero cells
- condition-label: read-out: CC50 cell toxicity, MTS, no virus, compounds from secondary screening
Property: CC50; scope: individual compounds

{"columns": ["compound", "modifier", "CC50 [µM]"],
 "data": [
  ["CN1CCN(CCCN2c3ccccc3Sc3ccc(S(=O)(=O)N(C)C)cc32)CC1 [Thioproperazine dimesylate]", "=", 41],
  ["C=C[C@@]1(C)CC(=O)[C@]2(O)[C@@]3(C)[C@@H](O)CCC(C)(C)[C@@H]3[C@H](OC(=O)CCN(C)C)[C@H](OC(C)=O)[C@@]2(C)O1", ">", 50]
]}

---

- procedure-text: in vitro
- condition-label: African green monkey, CC50 cell toxicity, Vero cells, MTS, no virus; compounds from primary screening
*1 amine or outer side, *2 acyl side, *3 side chain or, on linkers, in order; H or OH if unused. Where a SMILES comes first, the peptide text is derived from it. Bridges are numbered along the chain shown (N, C = ends). [ ]: non-standard residue; d: D form. The star is where a group is joined. hTyr(3S-OH,4S-OH,3'-OSO3H) = N[C@H](C(=O)O)[C@H](O)[C@@H](O)c1ccc(O)c(OS(=O)(=O)O)c1; Orn(4R-OH,5R-OH) = O=C([C@H](C[C@@H](O)[C@@H](O)N[*:3])N[*:1])[*:2]; Pro(3S-OH,4S-Me) = C[C@H]1CN[C@H](C(=O)O)[C@H]1O; X1 = CCCCCOc1ccc(-c2cc(-c3ccc(C(=O)*)cc3)no2)cc1; Gln(3R-OH) = NC(=O)C[C@@H](O)[C@H](N)C(=O)O; Hyp = O=C(O)[C@@H]1C[C@@H](O)CN1
Property: CC50 at 24 h; scope: individual compounds

{"columns": ["compound", "CC50 at 24 h"],
 "data": [
  ["CCC(CC)COC(=O)[C@H](C)N[P@](=O)(OC[C@H]1O[C@@](C#N)(c2ccc3c(N)ncnn23)[C@H](O)[C@@H]1O)Oc1ccccc1 [Remdesivir]", "> 100 µM"],
  ["CCCCc1nc(Cl)c(CO)n1Cc1ccc(-c2ccccc2-c2nn[nH]n2)cc1 [Losartan]", "> 100 µM"],
  ["Cc1ccc(-c2cc(C(F)(F)F)nn2-c2ccc(S(N)(=O)=O)cc2)cc1 [Celecoxib]", "74.8 µM"],
  ["CC(C)(C)c1ccc(CN2CCN(C(c3ccccc3)c3ccc(Cl)cc3)CC2)cc1 (stereo not shown) [Buclizine]", "> 100 µM"],
  ["Fc1ccc(C(c2ccc(F)cc2)N2CCN(C/C=C/c3ccccc3)CC2)cc1 [Flunarizine]", "> 100 µM"],
  ["CCN(CC)Cc1cc(Nc2ccnc3cc(Cl)ccc23)ccc1O [Amodiaquine]", "> 100 µM"],
  ["CCCCCOc1ccc(-c2cc(-c3ccc(C(=O)N[C@H]4C[C@@H](O)[C@@H](O)NC(=O)[C@@H]5[C@@H](O)[C@@H](C)CN5C(=O)[C@H]([C@H](O)CC(N)=O)NC(=O)[C@H]([C@H](O)[C@@H](O)c5ccc(O)c(OS(=O)(=O)O)c5)NC(=O)[C@@H]5C[C@@H](O)CN5C(=O)[C@H]([C@@H](C)O)NC4=O)cc3)no2)cc1 [Micafungin] (X1-[Orn(4R-OH,5R-OH)]T[Hyp][hTyr(3S-OH,4S-OH,3'-OSO3H)][Gln(3R-OH)][Pro(3S-OH,4S-Me)]; lactam 1-C)", "> 100 µM"],
  ["O=C(CCCl)NCc1ccccc1 [Beclamide]", "> 100 µM"],
  ["Cc1cccc(CN2CCN(C(c3ccccc3)c3ccc(Cl)cc3)CC2)c1 (stereo not shown) [Meclizine]", "> 100 µM"],
  ["CC[C@@H](C(=O)[C@@H](C)[C@@H](O)[C@H](C)[C@@H]1O[C@@H]([C@@H](CC)C(=O)O)CC[C@@H]1C)[C@H]1O[C@]2(C=C[C@@H](O)[C@]3(CC[C@@](C)([C@H]4CC[C@](O)(CC)[C@H](C)O4)O3)O2)[C@H](C)C[C@@H]1C [Salinomycin]", "56.3 µM"]
]}

---

Property: pIC50; scope: individual compounds
- Tested on: SARS-CoV-2
- procedure-text: microbe, parasite or virus in culture
- Format: cell-based
- condition-label: Severe acute respiratory syndrome coronavirus 2, Vero, 24 h, Vero cells, MOI 2, 24 h post-infection; compounds from secondary screening, 0.08–50 μM; read-out: IC50 antiviral activity
pIC50: −log10 of the molar value. Structures can show the parent of a compound that is named as a salt.

{"columns": ["compound", "pIC50"],
 "data": [
  ["CCN(CC)C(C)CN1c2ccccc2Sc2ccccc21 (stereo not shown) [Ethopropazine hydrochloride]", 4.69],
  ["CCOC(=O)C1=C[C@]2(CC)CCCN3CCc4c(n1c1ccccc41)[C@@H]32 [Vinpocetine]", 5.07],
  ["CC(CN1c2ccccc2Sc2ccccc21)N(C)C (stereo not shown) [Promethazine hydrochloride]", 4.72],
  ["CC[C@H]1CN2CC[C@H]1C[C@@H]2[C@@H](O)c1ccnc2ccc(OC)cc12 [hydroquinidine]", 4.62],
  ["CN1CCC(OC(c2ccccc2)c2ccccc2)CC1 [Diphenylpyraline hydrochloride]", 4.37],
  ["COC(=O)[C@H]1[C@H]2C[C@@H]3c4[nH]c5cc(OC)ccc5c4CCN3C[C@H]2C[C@@H](OC(=O)c2cc(OC)c(OC)c(OC)c2)[C@@H]1OC [Reserpine]", 4.53],
  ["CCCCOc1cc(C(=O)NCCN(CC)CC)c2ccccc2n1 [Dibucaine hydrochloride]", 4.67],
  ["CCN(CC)Cc1cc(Nc2ccnc3cc(Cl)ccc23)ccc1O [Amodiaquine]", 5.34],
  ["C=C[C@H]1C[N@@]2CC[C@H]1C[C@@H]2[C@@H](O)c1ccnc2ccc(OC)cc12 [Quinidine gluconate]", 4.62],
  ["CC1=NN(c2ccc(C)c(C)c2)C(=O)/C1=N\\Nc1cccc(-c2cccc(C(=O)O)c2)c1O [Eltrombopag]", 5.70],
  ["CCCS(=O)(=O)Nc1ccc(F)c(C(=O)c2c[nH]c3ncc(-c4ccc(Cl)cc4)cc23)c1F [Vemurafenib (PLX4032), Vemurafenib]", 5.15],
  ["CC(C)N(CCCCOCC(=O)NS(C)(=O)=O)c1cnc(-c2ccccc2)c(-c2ccccc2)n1 [Selexipag]", 5.07],
  ["CCC(CC)COC(=O)[C@H](C)N[P@](=O)(OC[C@H]1O[C@@](C#N)(c2ccc3c(N)ncnn23)[C@H](O)[C@@H]1O)Oc1ccccc1 [Remdesivir]", 5.30]
]}
